# Measured On: transporters associated with processing (Mus musculus, UniProt P21958+P36371)
# Sequence (P21958 whole entry): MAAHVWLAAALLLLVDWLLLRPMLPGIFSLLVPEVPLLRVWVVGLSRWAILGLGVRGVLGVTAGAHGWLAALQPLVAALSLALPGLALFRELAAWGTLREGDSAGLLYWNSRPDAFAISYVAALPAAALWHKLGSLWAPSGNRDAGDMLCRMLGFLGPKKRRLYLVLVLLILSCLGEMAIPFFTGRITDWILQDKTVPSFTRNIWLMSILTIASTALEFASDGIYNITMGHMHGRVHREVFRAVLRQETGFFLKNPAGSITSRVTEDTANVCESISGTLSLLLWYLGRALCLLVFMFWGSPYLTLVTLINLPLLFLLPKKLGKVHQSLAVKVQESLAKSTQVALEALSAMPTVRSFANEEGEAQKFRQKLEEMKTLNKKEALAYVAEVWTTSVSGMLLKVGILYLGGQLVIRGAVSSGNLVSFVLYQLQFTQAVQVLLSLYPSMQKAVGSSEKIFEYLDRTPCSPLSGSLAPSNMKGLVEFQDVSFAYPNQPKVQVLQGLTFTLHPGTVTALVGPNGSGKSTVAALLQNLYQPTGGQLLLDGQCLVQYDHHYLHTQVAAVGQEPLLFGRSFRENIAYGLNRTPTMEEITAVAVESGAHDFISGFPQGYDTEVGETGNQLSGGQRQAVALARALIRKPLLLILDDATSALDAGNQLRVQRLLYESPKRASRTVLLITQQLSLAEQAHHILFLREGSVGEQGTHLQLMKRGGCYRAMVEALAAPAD
# Sequence (P36371 whole entry): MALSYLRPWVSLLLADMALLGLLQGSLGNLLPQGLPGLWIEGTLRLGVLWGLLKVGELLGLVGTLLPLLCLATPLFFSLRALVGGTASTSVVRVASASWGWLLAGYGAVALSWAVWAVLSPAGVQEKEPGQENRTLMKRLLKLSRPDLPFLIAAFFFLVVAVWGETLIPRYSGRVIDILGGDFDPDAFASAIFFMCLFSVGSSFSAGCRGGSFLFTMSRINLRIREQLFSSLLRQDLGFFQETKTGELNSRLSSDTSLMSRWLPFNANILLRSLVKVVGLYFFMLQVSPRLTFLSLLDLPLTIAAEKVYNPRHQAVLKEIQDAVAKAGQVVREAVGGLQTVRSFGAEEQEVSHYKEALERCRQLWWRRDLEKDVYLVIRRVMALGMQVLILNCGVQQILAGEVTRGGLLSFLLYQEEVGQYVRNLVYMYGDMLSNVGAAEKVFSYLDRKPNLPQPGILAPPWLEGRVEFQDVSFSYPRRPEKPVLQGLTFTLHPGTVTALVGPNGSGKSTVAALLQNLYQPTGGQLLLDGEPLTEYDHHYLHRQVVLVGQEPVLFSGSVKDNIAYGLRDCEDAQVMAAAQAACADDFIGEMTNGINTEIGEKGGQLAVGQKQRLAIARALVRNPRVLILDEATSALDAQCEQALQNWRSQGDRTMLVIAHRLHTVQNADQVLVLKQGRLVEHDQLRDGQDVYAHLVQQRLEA
# Test Description: Transporter associated with processing
# Type: biochemical
Ends that are not written are not given here.
Lab note: anything with IC50 below 6 µM is marked Fulfilled; values at 6 µM or higher are marked Not fulfilled.

Identify whether the sequence TYSPPLNKL records IC50 below 6 µM.
Fulfilled

Identify whether the sequence LNKLFCQL records IC50 below 6 µM.
Not fulfilled

Identify whether the sequence AIYKKSQHM records IC50 below 6 µM.
Fulfilled

Identify whether the sequence VMCTYSPPL records IC50 below 6 µM.
Fulfilled

Identify whether the sequence YSPPLNKLF records IC50 below 6 µM.
Not fulfilled

Identify whether the sequence TTIHYKYM records IC50 below 6 µM.
Fulfilled
